B1: PAIP1 peptide 126-141 (Polyadenylate-binding protein-interacting protein 1), 16-mer library wild type / PABPC1 PABC (PABPC1 PABC domain, residues 544-623) (parent)
chain 1: SKLSVNAPEFYPSGYS
chain 2: PLTASMLASAPPQEQKQMLGERLFPLIQAMHPTLAGKITGMLLEIDNSELLHMLESPESLRSKVDEAVAVLQAHQAKEAA

variants of: B1; assay: proteomic peptide phage display deep mutational scan (ProP-PD DMS): M13 P8 16-mer library selected against immobilised GST-tagged bait for four days (rounds), NGS of the eluted pools per day and pseudo-replica; settings: with PABPC1 PABC (PABPC1 PABC domain, residues 544-623); bait immobilised on MaxiSorp plates (10 µg), library pre-cleared on GST, 2 h binding at 4 °C, five washes; one round per day, days 1-4; value from days 2 and 3; keep out of graded; scale: average fractional NGS count over selection days 2 and 3
EXPERIMENTAL ENDPOINT: screen value
Just the number, please.

Observe how each entry below is paired with its result.
chain 1 N6L = 0.00023
chain 1 Y11W = 0.000643
chain 1 E9T = 0.00117
chain 1 S1N = 0.000154

Entry under review: chain 1 P12M . Reported screen value? 0.000643

Same read-out for chain 1 S13N ? 0.00287

Same read-out for chain 1 G14I ? 0.000195
